Can you tell me U/mg NADPH (specific activity) for the items I'm about to list?
Assay: KARI assay of purified S. exigua KARI and variants with NADPH (Examples 6-9)
Format: biochemical
Details: cofactor NADPH

Task item: Consider the molecule Se1_KARI^LE9-his6: S. exigua KARI variant I95T (protein, UniProt D0WGK0 1-342, looked up, variant I95T, His6 tag, S. exigua KARI variant I95T) Ketol-acid reductoisomerase …: MSVKTKEKEMAVTILYEQDVDPKVIQGLKVGIIGYGSQGHAHALNLMDSGVDVRVGLREGSSSWKTAEEAGLKVTDMDTAAEEADVIMVLVPDETQPKVYQEHIAAHLKAGNTLAFAHGFNIHYGYIVPPEDVNVIMCAPKGPGHIVRRQFTEGSGVPDLACVQQDATGNAWDIVLSYCWGVGGARSGIIKATFAEETEEDLFGEQAVLCGGLVELVKAGFETLTEAGYPPELAYFECYHEMKMIVDLMYESGIHFMNYSISNTAEYGEYYAGPKVINEQSREAMKEILKRIQDGSFAQEFVDDCNNGHKRLLEQREAINTHPIETTGAQIRSMFSWIKKED and give its measured U/mg NADPH (specific activity).
Reply: 0.56 U/mg

Task item: Consider the molecule Se1_KARI^EE1-his6: S. exigua KARI variant L57R (protein, UniProt D0WGK0 1-342, looked up, variant L57R, His6 tag, S. exigua KARI variant L57R) Ketol-acid reductoisomerase …: MSVKTKEKEMAVTILYEQDVDPKVIQGLKVGIIGYGSQGHAHALNLMDSGVDVRVGRREGSSSWKTAEEAGLKVTDMDTAAEEADVIMVLVPDEIQPKVYQEHIAAHLKAGNTLAFAHGFNIHYGYIVPPEDVNVIMCAPKGPGHIVRRQFTEGSGVPDLACVQQDATGNAWDIVLSYCWGVGGARSGIIKATFAEETEEDLFGEQAVLCGGLVELVKAGFETLTEAGYPPELAYFECYHEMKMIVDLMYESGIHFMNYSISNTAEYGEYYAGPKVINEQSREAMKEILKRIQDGSFAQEFVDDCNNGHKRLLEQREAINTHPIETTGAQIRSMFSWIKKED and give its measured U/mg NADPH (specific activity).
Reply: 0.04 U/mg

Task item: Consider the molecule Se1_KARI^1H1: S. exigua KARI variant R58P, S61C (protein, UniProt D0WGK0 1-342, looked up, variant R58P S61C) Ketol-acid reductoisomerase …: MSVKTKEKEMAVTILYEQDVDPKVIQGLKVGIIGYGSQGHAHALNLMDSGVDVRVGLPEGCSSWKTAEEAGLKVTDMDTAAEEADVIMVLVPDEIQPKVYQEHIAAHLKAGNTLAFAHGFNIHYGYIVPPEDVNVIMCAPKGPGHIVRRQFTEGSGVPDLACVQQDATGNAWDIVLSYCWGVGGARSGIIKATFAEETEEDLFGEQAVLCGGLVELVKAGFETLTEAGYPPELAYFECYHEMKMIVDLMYESGIHFMNYSISNTAEYGEYYAGPKVINEQSREAMKEILKRIQDGSFAQEFVDDCNNGHKRLLEQREAINTHPIETTGAQIRSMFSWIKKED and give its measured U/mg NADPH (specific activity).
Reply: 0.26 U/mg

Origin of the recorded values: patent US20140295512A1
